Biological target: full-length human PLD1 (Homo sapiens (Human), UniProt Q13393)
Sequence (Q13393 other isoform, or with tags, fused parts or gaps): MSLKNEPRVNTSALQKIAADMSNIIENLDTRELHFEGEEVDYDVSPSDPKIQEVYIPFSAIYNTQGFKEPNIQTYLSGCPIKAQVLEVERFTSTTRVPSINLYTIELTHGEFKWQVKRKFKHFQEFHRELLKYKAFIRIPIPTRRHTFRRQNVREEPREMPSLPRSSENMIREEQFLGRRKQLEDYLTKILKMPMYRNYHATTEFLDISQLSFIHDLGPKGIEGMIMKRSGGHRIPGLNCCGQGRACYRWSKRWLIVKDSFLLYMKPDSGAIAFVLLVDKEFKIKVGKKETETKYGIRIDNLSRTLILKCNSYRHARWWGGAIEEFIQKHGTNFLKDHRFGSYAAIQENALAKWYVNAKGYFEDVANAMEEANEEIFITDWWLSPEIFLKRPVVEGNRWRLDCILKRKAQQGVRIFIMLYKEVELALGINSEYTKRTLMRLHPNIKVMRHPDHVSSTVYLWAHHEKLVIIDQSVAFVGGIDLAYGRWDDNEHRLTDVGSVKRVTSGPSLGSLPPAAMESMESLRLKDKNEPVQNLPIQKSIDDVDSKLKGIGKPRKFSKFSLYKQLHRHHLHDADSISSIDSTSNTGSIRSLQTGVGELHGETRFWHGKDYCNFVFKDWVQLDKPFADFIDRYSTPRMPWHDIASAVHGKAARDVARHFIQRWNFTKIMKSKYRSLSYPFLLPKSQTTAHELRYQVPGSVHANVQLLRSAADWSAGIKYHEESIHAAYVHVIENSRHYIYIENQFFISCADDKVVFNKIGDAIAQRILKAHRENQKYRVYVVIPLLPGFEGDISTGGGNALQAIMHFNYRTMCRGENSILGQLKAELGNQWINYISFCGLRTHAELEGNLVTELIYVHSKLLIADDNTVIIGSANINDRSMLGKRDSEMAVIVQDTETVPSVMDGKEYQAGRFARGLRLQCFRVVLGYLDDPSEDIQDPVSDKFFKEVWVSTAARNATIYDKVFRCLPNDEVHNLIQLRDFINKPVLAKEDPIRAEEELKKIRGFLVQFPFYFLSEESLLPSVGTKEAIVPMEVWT
Test: Evaluation of human PLD1 enzyme inhibitory activity (Amplex Red / choline oxidase fluorescence)
Assay type: biochemical
Conditions: full-length human PLD1 enzyme; read-out: PLD1 IC50
Below, each entry is listed alongside its reported IC50.
observation_type: IC50 (µM)

compound=[2H]C([2H])([C@H](C)NC(=O)C(=O)NC)N1CCC2(CC1)OC(=O)NN=C2c1ccc(F)cc1Br test_system="full-length human PLD1 (Homo sapiens (Human), UniProt Q13393)" observation_type=IC50 measured=0.025
compound=CNC(=O)C(=O)N[C@@H](C)C[C@H]1CC[C@]2(CC1)OC(=O)NN=C2c1ccnn1C test_system="full-length human PLD1 (Homo sapiens (Human), UniProt Q13393)" observation_type=IC50 measured=2.03
compound="CNC(=O)C(=O)N[C@@H](C)C(C#N)N1CCC2(CC1)OC(=O)NN=C2c1ccc(F)cc1Br (mixture of isomers)" test_system="full-length human PLD1 (Homo sapiens (Human), UniProt Q13393)" observation_type=IC50 measured=1.01
compound=Cc1cc(C(=O)N[C@@H](C)C[C@H]2CC[C@]3(CC2)OC(=O)NN=C3c2cc(C#N)ccc2Br)[nH]n1 test_system="full-length human PLD1 (Homo sapiens (Human), UniProt Q13393)" observation_type=IC50 measured=0.015

###

pIC50: recorded values
Molecular target: full-length human PLD2 (Homo sapiens (Human))
Sequence (O14939 whole entry): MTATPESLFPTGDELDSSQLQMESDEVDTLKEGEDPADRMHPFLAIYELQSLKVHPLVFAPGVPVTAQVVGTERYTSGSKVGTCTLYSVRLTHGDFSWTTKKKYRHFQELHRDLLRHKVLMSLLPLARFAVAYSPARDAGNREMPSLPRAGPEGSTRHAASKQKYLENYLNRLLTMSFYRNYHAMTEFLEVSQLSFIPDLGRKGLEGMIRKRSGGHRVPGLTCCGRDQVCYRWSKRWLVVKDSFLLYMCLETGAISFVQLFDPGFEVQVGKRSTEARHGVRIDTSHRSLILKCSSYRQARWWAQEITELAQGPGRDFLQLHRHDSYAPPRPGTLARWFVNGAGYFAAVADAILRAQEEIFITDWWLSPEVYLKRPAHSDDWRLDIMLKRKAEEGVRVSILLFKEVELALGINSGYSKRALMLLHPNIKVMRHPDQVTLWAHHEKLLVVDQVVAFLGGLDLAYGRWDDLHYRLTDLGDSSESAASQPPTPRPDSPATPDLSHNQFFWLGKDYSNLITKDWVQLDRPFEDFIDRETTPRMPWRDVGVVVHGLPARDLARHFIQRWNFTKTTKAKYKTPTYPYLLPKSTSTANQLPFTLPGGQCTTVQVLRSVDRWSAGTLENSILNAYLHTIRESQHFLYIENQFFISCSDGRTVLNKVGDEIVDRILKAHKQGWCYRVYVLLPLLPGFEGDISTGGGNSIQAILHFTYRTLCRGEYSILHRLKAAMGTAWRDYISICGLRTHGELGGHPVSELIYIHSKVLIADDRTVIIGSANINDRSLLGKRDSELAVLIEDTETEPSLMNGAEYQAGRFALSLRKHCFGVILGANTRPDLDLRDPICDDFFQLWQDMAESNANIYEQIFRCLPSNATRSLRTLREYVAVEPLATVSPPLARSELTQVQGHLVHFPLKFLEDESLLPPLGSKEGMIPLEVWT
Assay: Evaluation of human PLD2 enzyme inhibitory activity (Amplex Red / choline oxidase fluorescence)
Assay type: biochemical
Details: full-length human PLD2 enzyme; read-out: PLD2 IC50
pIC50: −log10 of the molar value.
observation_type: pIC50

compound="C[C@@H](C[C@H]1CC[C@]2(CC1)OC(=O)NN=C2c1cc(C(C)(C)O)ccc1Br)NC(=O)C(=O)NC1CC1 [Example 2-045]" measured="> 8.00"
compound="Cc1cc(C(=O)N[C@@H](C)CN2CCC3(CC2)OC(=O)NN=C3c2ccc(F)cc2Cl)no1 [Example 98]" measured=7.11
compound="C[C@@H](C[C@H]1CC[C@]2(CC1)OC(=O)NN=C2c1ccc(S(C)(=O)=O)cc1Cl)NC(=O)c1cc(Cl)no1 [Example 52]" measured="> 8.00"
compound="C[C@@H](C[C@H]1CC[C@]2(CC1)OC(=O)NN=C2c1ccc(F)cc1Br)NC(=O)C(=O)NC1CC1 [Example 203]" measured="> 8.00"
compound="Cc1cc(Cl)c(C2=NNC(=O)O[C@]23CC[C@@H](C[C@H](C)NC(=O)N2CCn4nccc4C2)CC3)cn1 [Example 276]" measured="> 8.00"
compound="CNC(=O)C(=O)N[C@@H](C)C[C@H]1CC[C@]2(CC1)OC(=O)NN=C2c1cc(C)ccc1C [Example 126]" measured="> 8.00"
compound="CNC(=O)C(=O)N[C@@H](C)CN1CCC2(CC1)OC(=O)NN=C2c1ccc(F)cc1Br [Example 179]" measured="> 8.00"
compound="CNC(=O)C(=O)N[C@@H](C)C[C@H]1CC[C@]2(CC1)OC(=O)NN=C2c1ccc(C#N)cc1Br [Example 57]" measured="> 8.00"
compound="CC(=O)NCC(=O)N[C@@H](C)C[C@H]1CC[C@]2(CC1)OC(=O)NN=C2c1ccc(F)cc1Br [Example 213]" measured=6.94
compound="Cc1cc(C(=O)N[C@@H](C)C[C@H]2CC[C@]3(CC2)OC(=O)NN=C3c2cccc(C#N)c2Br)[nH]n1 [Example 317]" measured=7.19
compound="CNC(=O)C(=O)N[C@@H](C)C[C@H]1CC[C@]2(CC1)OC(=O)NN=C2c1ccc(C#N)cc1C [Example 152]" measured=7.89
compound="C[C@@H](C[C@H]1CC[C@]2(CC1)OC(=O)NN=C2c1cc(OCC(F)(F)F)ccc1Br)NC(=O)c1cnn(C)c1 [Example 305]" measured="> 8.00"
compound="C[C@@H](C[C@H]1CC[C@]2(CC1)OC(=O)NN=C2c1ccc(OCC(C)(C)O)cc1Br)NC(=O)c1cc2ccccc2o1 [Example 132]" measured="> 8.00"
compound="CNC(=O)C(=O)N[C@@H](C)C[C@H]1CC[C@]2(CC1)OC(=O)NN=C2c1cnc(N2CCC(F)(F)C2)cc1C [Example 248]" measured="> 8.00"

Values from patent US20240101572A1
